Biological target: Chk1 (Homo sapiens)
Construct: purchased Upstate Biotechnology
Sequence (O14757 1-476): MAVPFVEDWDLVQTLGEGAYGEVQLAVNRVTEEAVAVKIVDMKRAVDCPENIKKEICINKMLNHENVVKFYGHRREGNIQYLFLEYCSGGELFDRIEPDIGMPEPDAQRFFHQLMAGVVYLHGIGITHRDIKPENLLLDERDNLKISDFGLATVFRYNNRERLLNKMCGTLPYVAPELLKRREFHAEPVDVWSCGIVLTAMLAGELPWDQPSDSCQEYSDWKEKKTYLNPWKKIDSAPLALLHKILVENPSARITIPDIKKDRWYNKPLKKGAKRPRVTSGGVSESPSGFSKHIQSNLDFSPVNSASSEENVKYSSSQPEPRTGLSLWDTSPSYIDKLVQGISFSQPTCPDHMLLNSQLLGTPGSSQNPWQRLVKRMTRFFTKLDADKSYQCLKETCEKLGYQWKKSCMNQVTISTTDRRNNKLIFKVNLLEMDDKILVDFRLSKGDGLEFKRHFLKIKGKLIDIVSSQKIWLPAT
Assay: Chk1 kinase assay: incorporation of γ-33P ATP into immobilized myelin basic protein
Format: biochemical
Conditions: read-out: Chk1 IC50
pIC50: −log10 of the molar value.
measured-metric: pIC50

>>> df
                            chemical_string  data_value
0  CNC(=O)c1nc(-c2cccc(C(=O)NCc3ccc(-c4csnn4)cc3)c2)cnc1N      > 7.30

Prompt line: Return pIC50 (reported value) for this molecule: CNC(=O)c1nc(-c2cccc(C(=O)NCc3c(F)ccc(C)c3Cl)c2)cnc1N
Response line: 6.00 to 7.30

Prompt line: Indicate the recorded pIC50 value for this molecule: CNC(=O)c1nc(-c2cccc(C(=O)NCc3ccoc3)c2)cnc1N
Response line: 6.00 to 7.30

Prompt line: Provide only the value of recorded pIC50 for COc1ccccc1-c1cnc(N)c(C(N)=O)n1
Response line: ≤ 5.00

* * *

Molecular target: Chk1 (Homo sapiens)
Construct: purchased Upstate Biotechnology
Sequence (O14757 1-476): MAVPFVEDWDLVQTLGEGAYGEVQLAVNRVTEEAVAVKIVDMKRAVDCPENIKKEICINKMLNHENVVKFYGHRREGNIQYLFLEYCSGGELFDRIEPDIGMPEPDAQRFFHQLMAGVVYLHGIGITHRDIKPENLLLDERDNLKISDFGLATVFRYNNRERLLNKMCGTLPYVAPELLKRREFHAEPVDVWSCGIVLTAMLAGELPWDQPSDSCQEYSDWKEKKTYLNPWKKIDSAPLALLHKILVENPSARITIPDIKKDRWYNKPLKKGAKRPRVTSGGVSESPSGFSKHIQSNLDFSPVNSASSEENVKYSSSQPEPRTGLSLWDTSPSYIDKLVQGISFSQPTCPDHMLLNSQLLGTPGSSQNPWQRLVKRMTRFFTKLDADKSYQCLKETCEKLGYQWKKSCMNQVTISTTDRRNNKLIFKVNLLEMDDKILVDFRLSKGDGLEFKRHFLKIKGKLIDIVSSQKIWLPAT
Experiment: Chk1 kinase assay: incorporation of γ-33P ATP into immobilized myelin basic protein
Type: biochemical
Settings: read-out: Chk1 IC50
Method: Chk1 and Chk2 assays were performed by measuring incorporation of γ-^33P ATP into immobilized myelin basic protein (MBP). […] Each data point was measured in duplicate, and at least two duplicate assays were performed for each individual compound determination. […] The above assay procedure can be used to determine the IC50 for inhibition and/or the inhibition constant Ki. […] The Ki for a compound may be determined from the IC50 based on three assumptions. […]
pIC50: −log10 of the molar value.
measured-metric: pIC50

The following compounds have reported results that may help.
>>> df
                                   compound    data_value
0   CNC(=O)c1nc(-c2cccc(OCCN3CCCC3)c2)cnc1N  6.00 to 7.30
1  CCOC(=O)Nc1cccc(-c2cnc(N)c(C(=O)NC)n2)c1  6.00 to 7.30
2  CNC(=O)c1nc(-c2cccc(C(=O)N[C@@H]3CCc4ccccc43)c2)cnc1N  5.00 to 6.00
3  CNC(=O)c1nc(-c2cccc(C(=O)NCc3ccc(C)cc3C)c2)cnc1N  6.00 to 7.30
4  CNC(=O)c1nc(-c2cccc(C(=O)NCc3c(OC)cccc3OC)c2)cnc1N  5.00 to 6.00

Prompt line: Provide only the value of recorded pIC50 for CNC(=O)c1nc(-c2cccc(C(=O)NCc3cccc(Cl)c3Cl)c2)cnc1N
Response line: 6.00 to 7.30

Prompt line: Provide pIC50 value for the following compound: NC(=O)c1nc(-c2ccccc2)cnc1NCc1ccccc1
Response line: ≤ 5.00
